Let's look at some pKi data for 5-hydroxytryptamine receptor 1A (Rattus norvegicus, UniProt P19327) that I collected from the literature.
- STUDY_SYSTEM: 5-hydroxytryptamine receptor 1A (Rattus norvegicus, UniProt P19327)
- Sequence (P19327 whole entry): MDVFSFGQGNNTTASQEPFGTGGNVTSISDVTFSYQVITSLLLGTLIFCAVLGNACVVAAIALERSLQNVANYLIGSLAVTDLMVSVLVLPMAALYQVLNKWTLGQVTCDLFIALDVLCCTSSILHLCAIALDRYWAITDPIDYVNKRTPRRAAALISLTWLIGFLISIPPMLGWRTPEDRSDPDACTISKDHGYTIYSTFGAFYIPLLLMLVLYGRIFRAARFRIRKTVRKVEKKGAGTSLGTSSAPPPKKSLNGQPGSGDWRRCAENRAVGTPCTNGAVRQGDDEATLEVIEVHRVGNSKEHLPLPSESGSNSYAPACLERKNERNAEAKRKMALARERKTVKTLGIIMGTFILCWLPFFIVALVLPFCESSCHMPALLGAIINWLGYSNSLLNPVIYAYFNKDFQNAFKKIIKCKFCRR
pKi: −log10 of the molar value.
QUANTITY_MEASURED: pKi

Observe how each entry below is paired with its result.
> print(dat)
                                   molecule  value.reported
1  c1cnc(N[C@H]2CC[C@H](CCN3CCN(c4ncccn4)CC3)CC2)nc1            8.07
2  O=C(c1ccc(Cl)c(Cl)c1)N1CCC(CNCc2cccc(F)c2)CC1            7.83
3   CN1CCN(c2nc(-c3ccoc3)cc(-c3ccoc3)n2)CC1            6.21

A. COc1ccc(CCCCNCCOc2c(F)ccc3c2OCCC3)cc1
B. COc1ccccc1-c1c(=O)n(CCCCN2CC=C(c3c[nH]c4ccc(Br)cc34)CC2)c(=O)n2ccccc12
C. CN1CCc2ccc3c4c2[C@H]1Cc1cccc(c1-4)[C@@]3(C)O
Exam item: Ordering: ascending pKi. When ranking, write the labels in the order the request describes.
Marked response: C, B, A
(C: 6.50, B: 7.48, A: 9.46)

a. Cc1ccc(-n2cc(CN3CCN(c4ccccc4)CC3)c3ccccc32)cc1
b. O=C1C2CCCN2C(=O)N1CCCCNCCOc1ccccc1-c1ccccc1 (stereo unspecified)
Exam item: Which value of pKi is smaller, the one for a or the one for b ? I would appreciate it if you answered with the label of your choice.
Marked response: a
(a: 6.48, b: 7.59)
